Measured values drawn from paper PMC10397247 for this set.

- TEST TARGET: T1, O4-bP
- T1 chain: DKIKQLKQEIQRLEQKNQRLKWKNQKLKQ
- TEST PROTOCOL: two-hybrid library CCNG1;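 also: natural log of median RNA to DNA barcode read ratio; higher means stronger binding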
Measured interaction score accompanies every entry in the list below.
MEASURE NAME: interaction score

DENKQLEQKNQRLKQKIQRLKWKIQKLKQ [O2-bP] :: -0.811
DKIKQLKQEIQRLEQENQRLEWENQKLEQ [O11-bP] :: 0.69
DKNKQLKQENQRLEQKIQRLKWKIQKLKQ [O10-bP] :: -0.826
DKNKQLKQENQRLEQEIQRLEWEIQKLEQ [O1-bP] :: -1.05
